Values from paper PMC6571673

Experiment: Metabolic stability in liver microsomes
Assay type: in vitro ADME
Conditions: mouse liver microsomes; read-out: metabolic stability t1/2
measurement.name: half-life

Query block: Kindly indicate its recorded half-life. Item: COC(=O)C[C@](O)(CCCC(C)(C)O)C(=O)O[C@@H]1C(OC)=C[C@]23CCCN2CCc2cc4c(cc2[C@H]13)OCO4 [Compound 10, homoharringtonine, reference compound]
Result block: ≥ 1 h

---

Experiment: Simulated gastric fluid (SGF) stability
Type: in vitro ADME
Settings: read-out: SGF stability t1/2
Experimental: To gain further information regarding intracellular compound localization, studies were extended to include a marker for the ER (Figure 8). The staining pattern for the individual probes are shown in Figure 8A (ER), Figure 8B (Lysosome) and Figure 8D (probe 9a). […] Finally, in vitro ADME (absorption, distribution, metabolism, and elimination) profiles were evaluated for compounds 9 and 10 to compare with the obtained cellular data (Supplementary Material, Figure S10). […]
measurement.name: half-life

Query block: Give half-life for COC(=O)C[C@](O)(CCCC(C)(C)O)C(=O)O[C@@H]1C(OC)=C[C@]23CCCN2CCc2cc4c(cc2[C@H]13)OCO4 [Compound 10, homoharringtonine, reference compound]
Result block: > 33 h

---

Tested on: SUP-B15
Assay: CTG viability assay (CellTiter-Glo, 72 h)
Format: cell-based, human
Details: Homo sapiens, SUP-B15, 72 h, mean ± SEM of triplicates
1 if EC50 is below 10 µM. -1 if not; exact matches included in -1.

Worked examples, 2 compounds total:
- compound: "CC(C)(O)CC[C@@H](O)[C@](C)(O)[C@H]1CC[C@@]2(O)C3=CC(=O)[C@@H]4C[C@@H](O)[C@@H](O)C[C@]4(C)[C@H]3CC[C@]12C"
  target.or.system: "SUP-B15"
  answer.label: -1
- compound: "CC(C)CC[C@@H](O)[C@](C)(O)[C@H]1CC[C@@]2(O)C3=CC(=O)[C@]4(O)C[C@@H](O)[C@@H](O)C[C@]4(C)[C@H]3[C@H](O)C[C@]12C"
  target.or.system: "SUP-B15"
  answer.label: 1

Query block: A record lists `COc1ccc2c(c[n+](C)c3c4cc5c(cc4ccc23)OCO5)c1OC` . Is its EC50 below 10 µM?
Result block: 1

Query block: Determine whether this compound shows EC50 lower than 10 µM (ties excluded): COC(=O)C[C@](O)(CCCC(C)(C)O)C(=O)O[C@@H]1C(OC)=C[C@]23CCCN2CCc2cc4c(cc2[C@H]13)OCO4 [Compound 10, homoharringtonine, reference compound]
Result block: 1

Query block: Report whether reported EC50 is lower than 10 µM (strictly) for `C/C=C1\C(=O)C[C@@]2(O)[C@@H]3CCC4=CC(=O)CC[C@]4(C)[C@H]3CC[C@]12C`
Result block: -1

---

Assay: Simulated gastric fluid (SGF) stability
Type: in vitro ADME
Settings: simulated gi fluid, read-out: SGF stability t1/2
Description: To gain further information regarding intracellular compound localization, studies were extended to include a marker for the ER (Figure 8). The staining pattern for the individual probes are shown in Figure 8A (ER), Figure 8B (Lysosome) and Figure 8D (probe 9a). […] Finally, in vitro ADME (absorption, distribution, metabolism, and elimination) profiles were evaluated for compounds 9 and 10 to compare with the obtained cellular data (Supplementary Material, Figure S10). […]
measurement.name: half-life

Query block: Assign half-life to the following record: COC1=C[C@]23CCCN2CCc2cc4c(cc2[C@@H]3[C@@H]1O)OCO4 [Compound 9, cephalotaxine]
Result block: > 1980 min

---

Give measured efflux ratio for each item. Keep answers brief.
Assay: caco-2 permeability assay
Assay type: in vitro ADME
Settings: human, read-out: efflux ratio, B2A/A2B

- compound: "COC(=O)C[C@](O)(CCCC(C)(C)O)C(=O)O[C@@H]1C(OC)=C[C@]23CCCN2CCc2cc4c(cc2[C@H]13)OCO4 [Compound 10, homoharringtonine, reference compound]"
  efflux ratio: "< 1"

Read the next record carefully.
Query block: Tell me measured efflux ratio for COC1=C[C@]23CCCN2CCc2cc4c(cc2[C@@H]3[C@@H]1O)OCO4 [Compound 9, cephalotaxine] please.
Result block: ~2

---

System: SUP-B15
Experiment: CTG viability assay (CellTiter-Glo, 72 h)
Assay type: cell-based, human
Conditions: mean ± SEM of triplicates
measurement.name: EC50 (µM)
Give bare numbers, in µM.

Query block: Provide only the value of recorded EC50 for COC(=O)C[C@](O)(CCCC(C)(C)O)C(=O)O[C@@H]1C(OC)=C[C@]23CCCN2CCc2cc4c(cc2[C@H]13)OCO4 [Compound 10, homoharringtonine, reference compound]
Result block: 0.045

---

Assay: Metabolic stability in liver microsomes
Assay type: in vitro ADME
Details: human liver microsomes; read-out: metabolic stability t1/2
measurement.name: half-life

Query block: Give recorded half-life. COC(=O)C[C@](O)(CCCC(C)(C)O)C(=O)O[C@@H]1C(OC)=C[C@]23CCCN2CCc2cc4c(cc2[C@H]13)OCO4 [Compound 10, homoharringtonine, reference compound]
Result block: ≥ 1 h

---

Test system: SUP-B15
Assay: CTG viability assay (CellTiter-Glo, 72 h)
Format: cell-based, human
Details: Homo sapiens, SUP-B15, mean ± SEM of triplicates
Assign EC50 to each entry below.
A bare number is not enough; add the unit after it.

For orientation, consider the following solved cases.
- compound: "COC1=C[C@]23CCCN2CCc2cc4c(cc2[C@@H]3[C@@H]1O)OCO4 [Compound 9, cephalotaxine]"
  target.or.system: "SUP-B15"
  result: "10.4 µM"
- compound: "CCC1CN2CCc3cc(OC)c(OC)cc3C2CC1CC1NCCc2cc(O)c(OC)cc21 (centres unmarked) [Compound 6]"
  target.or.system: "SUP-B15"
  result: "9.83 µM"
- compound: "COc1ccc(CC2c3cc(O)c(OC)cc3CCN2C)cc1O (centres unmarked) [Compound 4]"
  target.or.system: "SUP-B15"
  result: "38 µM"
- compound: "COc1cc2c(cc1O)[C@H]1Cc3ccc(OC)c(O)c3CN1CC2 [Compound 5]"
  target.or.system: "SUP-B15"
  result: "29 µM"

Would you kindly look at the next entry?
Query block: Provide measured EC50 value, entry: C[C@H]([C@H](O)CCC(C)(C)O)[C@H]1CC[C@@]2(O)C3=CC(=O)[C@@H]4C[C@@H](O)[C@@H](O)C[C@]4(C)[C@H]3CC[C@]12C [Compound 12, ecdysone]
Result block: 20.1 µM
